List of glass transition temperature values.
Give the number; °C is assumed, so skip it.

[
  {
    "molecule": "*C/C=C/C[Si](*)(C)CCCOc1ccc2ccccc2c1 (repeat unit)",
    "glass transition temperature, °C": -1.00
  },
  {
    "molecule": "*c1cccc(N2C(=O)c3ccc(Oc4cccc(Oc5ccc6c(c5)C(=O)N(*)C6=O)c4)cc3C2=O)c1 (repeat unit)",
    "glass transition temperature, °C": 224.00
  },
  {
    "molecule": "*CC(COC(=O)CCCCCN1C(=O)C2C3C=CC(C3)C2C1=O)O* (repeat unit)",
    "glass transition temperature, °C": 1.00
  },
  {
    "molecule": "*c1ccc(-c2ccc(-c3nc4ccccc4c(-c4ccc(Oc5ccc(-c6c(-c7ccccc7)c(*)nc7ccccc67)cc5)cc4)c3-c3ccccc3)cc2)cc1 (repeat unit)",
    "glass transition temperature, °C": 345.00
  },
  {
    "molecule": "*/C(=C/c1cc(OC)c(/C=C(/c2ccc(*)cc2)c2ccc(F)cc2)cc1OC)c1ccc(F)cc1 (repeat unit)",
    "glass transition temperature, °C": 193.00
  },
  {
    "molecule": "*CC(*)(C)C(=O)OCC1(C)COC(C)(C)OC1 (repeat unit)",
    "glass transition temperature, °C": 108.00
  },
  {
    "molecule": "*c1ccc(Oc2cccc(Oc3ccc(N4C(=O)CC(=O)N(*)C4=S)cc3)c2)cc1 (repeat unit)",
    "glass transition temperature, °C": 145.00
  },
  {
    "molecule": "*C(=S)Nc1ccc(Oc2ccc(NC(=S)n3c(=O)c4cc5c(=O)n(*)c(=O)c5cc4c3=O)cc2)cc1 (repeat unit)",
    "glass transition temperature, °C": 265.00
  },
  {
    "molecule": "*CC(C)(C)CS(=O)(=O)CC(C)(C)COC(=O)c1ccc(C(=O)O*)cc1 (repeat unit)",
    "glass transition temperature, °C": 105.00
  },
  {
    "molecule": "*CCN(CCOC(=O)Nc1ccc(C)c(NC(=O)O*)c1)c1ccc(/C=C/c2cc[n+](CCCC)cc2)cc1 (repeat unit)",
    "glass transition temperature, °C": 121.00
  }
]

Consider the molecule shown here: *CC(*)c1ccc(C(=O)OC)cc1 (repeat unit) [Poly(p-methoxycarbonyl styrene) ] What is its recorded glass transition temperature?
113

Consider the molecule shown here: *CCCCOC(=O)CCCCC(=O)O* (repeat unit) [Poly(tetramethylene adipate) ] What is its recorded glass transition temperature?
-68

---

List of glass transition temperature values.
Give the number; °C is assumed, so skip it.

[
  {
    "compound": "*C(=O)c1ccc2c(c1)C(=O)N(c1ccc(Sc3ccc(N4C(=O)c5ccc(*)cc5C4=O)cn3)nc1)C2=O (repeat unit)",
    "glass transition temperature (°C)": 246.00
  }
]

Consider the compound shown here: *Oc1ccc(C2(c3ccc(Oc4ccc(C(=O)c5cccc(-c6cccc(C(=O)c7ccc(*)cc7)c6)c5)cc4)cc3)c3ccccc3-c3ccccc32)cc1 (repeat unit) What is its recorded glass transition temperature?
212.00

Consider the compound shown here: *CCN(CCCCCCOc1ccc(/C=C/c2ccc([N+](=O)[O-])cc2)cc1)CCOC(=O)Nc1ccc(C)c(NC(=O)O*)c1 (repeat unit) What is its recorded glass transition temperature?
58.50

---

List of glass transition temperature values.
Give the number; °C is assumed, so skip it.

Record excerpt, results attached:
[
  {
    "molecule": "*c1ccc([Si](c2ccccc2)(c2ccccc2)c2ccc(-c3ccc4c(c3)c3cc(*)ccc3n4CCCCCC#N)cc2)cc1 (repeat unit)",
    "result-type": "glass transition temperature",
    "result": 165.00
  },
  {
    "molecule": "*CC(C)(CO*)COCC(F)(F)F (repeat unit)",
    "result-type": "glass transition temperature",
    "result": -41.00
  },
  {
    "molecule": "*Oc1ccc(Nc2ccc(/N=N/c3ccc(Nc4ccc(*)cc4)cc3)cc2)cc1 (repeat unit)",
    "result-type": "glass transition temperature",
    "result": 169.00
  }
]

Consider the molecule shown here: *Nc1ccc(-c2c(-c3ccccc3)cc(-c3ccc(-c4cc(-c5ccccc5)c(-c5ccc(NC(=O)c6ccc(C(*)=O)cc6)cc5)c(-c5ccccc5)c4)cc3)cc2-c2ccccc2)cc1 (repeat unit) What is its recorded glass transition temperature?
290.00

Consider the molecule shown here: *O[Si](*)(C)CCCOc1ccc(C(=O)OC2CCC3(C)C(=CCC4C3CCC3(C)C(C(C)CCCC(C)C)CCC43)C2)cc1S(=O)(=O)[O][K] (repeat unit) What is its recorded glass transition temperature?
112.60

---

Criterion: glass transition temperature meeting or surpassing 200 °C. Met: y. Not met: n.

Given *c1ccc(C(=O)c2ccc(N3C(=O)c4ccc(Oc5ccc(Oc6ccc7c(c6)C(=O)N(*)C7=O)cc5)cc4C3=O)cc2)cc1 (repeat unit) , state whether its glass transition temperature is at least 200 °C.
y

Given *CCOCCOCCOCCOC(=O)/C=C/C(=O)NCCCCCCNC(=O)/C=C/C(=O)O* (repeat unit) , state whether its glass transition temperature is at least 200 °C.
n

---

List of glass transition temperature values.
# do not omit the unit; it follows the number

Record excerpt, results attached:
[
  {
    "molecule": "*CCOCCOCCOC(=O)c1ccc(-c2ccc(-c3ccc(C(=O)O*)cc3)cc2)cc1 (repeat unit)",
    "glass transition temperature": "50.00 °C"
  },
  {
    "molecule": "*[CH2][Ge]([CH3])([CH3])[CH2]c1cocc1* (repeat unit)",
    "glass transition temperature": "-28.00 °C"
  },
  {
    "molecule": "*c1ccc(Oc2ccc(Oc3ccc(-n4c(=O)c5cc6c(=O)n(*)c(=O)c6cc5c4=O)cc3)cc2-c2ccccc2)cc1 (repeat unit)",
    "glass transition temperature": "271.00 °C"
  },
  {
    "molecule": "*CC(CCCC)O* (repeat unit)",
    "glass transition temperature": "-69.00 °C"
  },
  {
    "molecule": "*c1cccc(Oc2ccc(Oc3cccc(N4C(=O)c5ccc(Oc6ccc7c(c6)C(=O)N(*)C7=O)cc5C4=O)c3)cc2)c1 (repeat unit)",
    "glass transition temperature": "204.00 °C"
  }
]

Consider the molecule shown here: *CC(*)C(=O)OCCCCCCCCCOC(=O)c1ccc(OC(=O)c2ccc(C#N)cc2)cc1 (repeat unit) What is its recorded glass transition temperature?
15.00 °C

Consider the molecule shown here: *CC(O)COC(=O)C1CCC(C(=O)OCC(O)COc2ccc(C(C)(C)c3ccc(O*)cc3)cc2)CC1 (repeat unit) What is its recorded glass transition temperature?
70.00 °C

Consider the molecule shown here: *O[Si](*)(C)C1CC2CC1C1C3CC(CC3C(=O)OC(C)(C)C)C21 (repeat unit) What is its recorded glass transition temperature?
90.00 °C

---

List of glass transition temperature values.
Give the number; °C is assumed, so skip it.

Record excerpt, results attached:
[
  {
    "compound": "*c1cc(C(c2ccc(OCCN(c3ccccc3)c3ccc(/C=C/C4=CC(=C(/C#N)S(C)(=O)=O)/CC(C)(C)C4)cc3)c(N3C(=O)c4ccc(Oc5ccc6c(c5)C(=O)N(*)C6=O)cc4C3=O)c2)(C(F)(F)F)C(F)(F)F)ccc1OCCN(c1ccccc1)c1ccc(/C=C/C2=CC(=C(/C#N)S(C)(=O)=O)/CC(C)(C)C2)cc1 (repeat unit)",
    "glass transition temperature / °C": 234.00
  },
  {
    "compound": "*c1ccc2c(c1)C(=O)N(c1ccc(C3(c4ccc(N5C(=O)c6ccc(C(*)(C(F)(F)F)C(F)(F)F)cc6C5=O)c(C(C)C)c4)c4ccccc4-c4ccccc43)cc1C(C)C)C2=O (repeat unit)",
    "glass transition temperature / °C": 299.00
  },
  {
    "compound": "*Oc1ccc(C2(c3ccc(OC(=O)c4cccc(C(*)=O)c4)cc3)CCC3CCCCC3C2)cc1 (repeat unit)",
    "glass transition temperature / °C": 248.00
  },
  {
    "compound": "*c1cccc(Oc2ccc(P(=O)(c3ccccc3)c3ccccc3)c(Oc3cccc(N4C(=O)c5ccc(-c6ccc7c(c6)C(=O)N(*)C7=O)cc5C4=O)c3)c2)c1 (repeat unit)",
    "glass transition temperature / °C": 234.00
  }
]

Here is another compound to look at.
Consider the compound shown here: *CC(*)c1ccc(C)cc1C (repeat unit) What is its recorded glass transition temperature?
112

---

List of glass transition temperature values.
Give the number; °C is assumed, so skip it.

Record excerpt, results attached:
[
  {
    "molecule": "*CC(*)(C)C(=O)OCCCCl (repeat unit)",
    "result-type": "glass transition temperature",
    "result": 50.00
  },
  {
    "molecule": "*CC(*)c1ccc(Cn2c3ccccc3c3ccccc32)cc1 (repeat unit)",
    "result-type": "glass transition temperature",
    "result": 166.00
  },
  {
    "molecule": "*CC(*)(C)C(=O)OCC(O)CO (repeat unit)",
    "result-type": "glass transition temperature",
    "result": 84.40
  }
]

Consider the molecule shown here: *c1ccc(-c2ccc3c(c2)C(CCCCCC)(CCCCCC)c2cc(*)ccc2-3)cc1 (repeat unit) What is its recorded glass transition temperature?
106.20

Consider the molecule shown here: *CC(*)c1ccc(N(c2ccccc2)c2ccccc2)cc1 (repeat unit) What is its recorded glass transition temperature?
123.50
